Data origin, for the record: ChEMBL document CHEMBL4834412

The molecules listed here are annotated with their EC50.
# Test system: Human immunodeficiency virus 1
# assayOverview: Antiviral activity against NNRTI-resistant HIV-1 RES056 harboring RT K103N/Y181C mutant infected in human MT4 cells assessed as protection against virus-induced cytopathogenicity after 5 days by MTT assay
# Format: functional, organism-based
# measurementParameters: Human immunodeficiency virus 1, RES056, MT4, 120 h
Write the value in nM as a bare number.

For the molecule Cc1cc(/C=C/C#N)cc(C)c1Oc1nc(NC2CCN(Cc3ccc(C(N)=O)cc3)CC2)ncc1-c1ccc(N)nc1 , what EC50 is on record? 30.2

====

# Test system: Human immunodeficiency virus 1
# assayOverview: Antiviral activity against HIV-1 harboring RT Y188L mutant infected in human MT4 cells assessed as protection against virus-induced cytopathogenicity after 5 days by MTT assay
# Type: functional, organism-based
# measurementParameters: Human immunodeficiency virus 1, MT4, 120 h
readoutLabel: pEC50
Scale: negative log10 of molar concentration, which is what pEC50 denotes.

Study these solved cases before continuing.
Cc1cc(C#N)cc(C)c1Oc1nc(NC2CCN(Cc3ccc(C(N)=O)cc3)CC2)ncc1-c1ccsc1 :: 7.52
Cc1cc(C#N)cc(C)c1Oc1nc(NC2CCN(Cc3ccc(S(N)(=O)=O)cc3)CC2)ncc1-c1cccs1 :: 8.03
Cc1cc(C#N)cc(C)c1Oc1nc(NC2CCN(Cc3ccc(S(C)(=O)=O)cc3)CC2)ncc1-c1ccccc1 :: 7.45

For the molecule Cc1cc(C#N)cc(C)c1Oc1nc(NC2CCN(Cc3ccc(S(C)(=O)=O)cc3)CC2)ncc1-c1ccsc1 , what pEC50 is on record? 7.57

====

# System: Human immunodeficiency virus 1
# assayOverview: Antiviral activity against HIV-1 harboring RT F227L/V106A mutant infected in human MT4 cells assessed as protection against virus-induced cytopathogenicity after 5 days by MTT assay
# Type: functional, organism-based
# measurementParameters: Human immunodeficiency virus 1, MT4, 120 h
The compounds listed here are annotated with their pEC50.
Scale: negative log10 of molar concentration, which is what pEC50 denotes.

Study these solved cases before continuing.
Cc1cc(/C=C/C#N)cc(C)c1Oc1nc(NC2CCN(Cc3ccc(S(C)(=O)=O)cc3)CC2)ncc1-c1cccnc1 :: 7.88
Cc1cc(C#N)cc(C)c1Oc1nc(NC2CCN(Cc3ccc(S(N)(=O)=O)cc3)CC2)ncc1-c1ccncc1 :: 7.34
Cc1cc(C#N)cc(C)c1Oc1nc(NC2CCN(Cc3ccc(C(N)=O)cc3)CC2)ncc1-c1ccco1 :: 6.79
Cc1cc(/C=C/C#N)cc(C)c1Oc1nc(NC2CCN(Cc3ccc(S(N)(=O)=O)cc3)CC2)ncc1-c1ccc(F)nc1 :: 7.64
Cc1cc(C#N)cc(C)c1Oc1nc(NC2CCN(Cc3ccc(S(C)(=O)=O)cc3)CC2)ncc1-c1ccsc1 :: 7.17

// below: pEC50 requested for another compound
For the compound Cc1cc(C#N)cc(C)c1Oc1nc(NC2CCN(Cc3ccc(S(N)(=O)=O)cc3)CC2)ncc1-c1ccsc1 , what pEC50 is on record? 7.07

====

# assayOverview: Tmax in Sprague-Dawley rat at 2 mg/kg, iv
# Type: ADME, organism-based
# measurementParameters: in vivo
readoutLabel: Tmax (min)
Write the value in min as a bare number.

For the compound Cc1cc(C#N)cc(C)c1Oc1nc(NC2CCN(Cc3ccc(C(N)=O)cc3)CC2)ncc1-c1ccncc1 , what Tmax is on record? 19.8

====

# Tested on: Human immunodeficiency virus 1
# assayOverview: Antiviral activity against HIV-1 harboring RT Y188L mutant infected in human MT4 cells assessed as protection against virus-induced cytopathogenicity after 5 days by MTT assay
# Type: functional, organism-based
# measurementParameters: Human immunodeficiency virus 1, MT4, 120 h
Label Fulfilled when EC50 < 20 nM; otherwise Not fulfilled.

Cc1cc(C#N)cc(C)c1Oc1nc(NC2CCN(Cc3ccc(S(N)(=O)=O)cc3)CC2)ncc1-c1ccsc1 :: Not fulfilled
Cc1cc(/C=C/C#N)cc(C)c1Oc1nc(NC2CCN(Cc3ccc(S(N)(=O)=O)cc3)CC2)ncc1-c1ccc(F)nc1 :: Not fulfilled
Cc1cc(/C=C/C#N)cc(C)c1Oc1nc(NC2CCN(Cc3ccc(S(N)(=O)=O)cc3)CC2)ncc1-c1cccnc1 :: Not fulfilled

Identify whether the molecule Cc1cc(C#N)cc(C)c1Oc1nc(NC2CCN(Cc3ccc(S(C)(=O)=O)cc3)CC2)ncc1-c1cccs1 records EC50 below 20 nM. Fulfilled

Identify whether the molecule Cc1cc(C#N)cc(C)c1Oc1nc(NC2CCN(Cc3ccc(C(N)=O)cc3)CC2)ncc1-c1ccncc1 records EC50 below 20 nM. Fulfilled

Identify whether the molecule Cc1cc(C#N)cc(C)c1Oc1nc(NC2CCN(Cc3ccc(S(C)(=O)=O)cc3)CC2)ncc1-c1ccoc1 records EC50 below 20 nM. Not fulfilled

Identify whether the molecule Cc1cc(C#N)cc(C)c1Oc1nc(Nc2ccc(C#N)cc2)nc(N)c1Br [ETRAVIRINE] records EC50 below 20 nM. Fulfilled

Identify whether the molecule Cc1cc(/C=C/C#N)cc(C)c1Oc1nc(NC2CCN(Cc3ccc(S(N)(=O)=O)cc3)CC2)ncc1-c1ccncc1 records EC50 below 20 nM. Not fulfilled

====

The compounds listed here are annotated with their EC50.
# System: Human immunodeficiency virus 1
# assayOverview: Antiviral activity against HIV-1 harboring RT Y188L mutant infected in human MT4 cells assessed as protection against virus-induced cytopathogenicity after 5 days by MTT assay
# Assay type: functional, organism-based
# measurementParameters: Human immunodeficiency virus 1, MT4, 120 h
Write the value in nM as a bare number.

Study these solved cases before continuing.
Cc1cc(/C=C/C#N)cc(C)c1Oc1nc(NC2CCN(Cc3ccc(C(N)=O)cc3)CC2)ncc1-c1ccc(N)nc1 :: 54.2
Cc1cc(C#N)cc(C)c1Oc1nc(NC2CCN(Cc3ccc(S(N)(=O)=O)cc3)CC2)ncc1-c1ccncc1 :: 21.4

// below: EC50 requested for another compound
For the compound Cc1cc(C#N)cc(C)c1Oc1nc(NC2CCN(Cc3ccc(C(N)=O)cc3)CC2)ncc1-c1ccoc1 , what EC50 is on record? 21.1

====

# assayOverview: Tmax in Sprague-Dawley rat at 20 mg/kg, po
# Format: ADME, organism-based
# measurementParameters: in vivo
readoutLabel: Tmax (h)
Write the value in h as a bare number.

For the molecule Cc1cc(C#N)cc(C)c1Oc1nc(NC2CCN(Cc3ccc(C(N)=O)cc3)CC2)ncc1-c1ccncc1 , what Tmax is on record? 1

====

# Tested on: Human immunodeficiency virus 1
# assayOverview: Antiviral activity against HIV-1 harboring RT Y188L mutant infected in human MT4 cells assessed as protection against virus-induced cytopathogenicity after 5 days by MTT assay
# Assay type: functional, organism-based
# measurementParameters: Human immunodeficiency virus 1, MT4, 120 h
The molecules listed here are annotated with their pEC50.
Scale: negative log10 of molar concentration, which is what pEC50 denotes.

Cc1cc(/C=C/C#N)cc(C)c1Oc1nc(NC2CCN(Cc3ccc(S(C)(=O)=O)cc3)CC2)ncc1-c1cccnc1 :: 7.64
Cc1cc(C#N)cc(C)c1Oc1nc(NC2CCN(Cc3ccc(S(C)(=O)=O)cc3)CC2)ncc1-c1ccco1 :: 7.54
Cc1cc(C#N)cc(C)c1Oc1nc(NC2CCN(Cc3ccc(S(C)(=O)=O)cc3)CC2)ncc1-c1ccncc1 :: 7.73

// below: pEC50 requested for another molecule
For the molecule Cc1cc(C#N)cc(C)c1Oc1nc(NC2CCN(Cc3ccc(S(N)(=O)=O)cc3)CC2)ncc1-c1ccoc1 , what pEC50 is on record? 7.82

====

# Tested on: Human immunodeficiency virus 1
# assayOverview: Antiviral activity against HIV-1 harboring RT F227L/V106A mutant infected in human MT4 cells assessed as protection against virus-induced cytopathogenicity after 5 days by MTT assay
# Assay type: functional, organism-based
# measurementParameters: Human immunodeficiency virus 1, MT4, 120 h
The molecules listed here are annotated with their EC50.

For the molecule Cc1cc(C#N)cc(C)c1Oc1nc(NC2CCN(Cc3ccc(C(N)=O)cc3)CC2)ncc1-c1ccsc1 , what EC50 is on record? 325 nM

For the molecule Cc1cc(C#N)cc(C)c1Oc1nc(NC2CCN(Cc3ccc(C(N)=O)cc3)CC2)ncc1-c1ccoc1 , what EC50 is on record? 307 nM

For the molecule Cc1cc(/C=C/C#N)cc(C)c1Oc1nc(NC2CCN(Cc3ccc(C(N)=O)cc3)CC2)ncc1-c1ccc(F)nc1 , what EC50 is on record? 27.5 nM

For the molecule Cc1cc(C#N)cc(C)c1Oc1nc(NC2CCN(Cc3ccc(S(N)(=O)=O)cc3)CC2)ncc1-c1ccoc1 , what EC50 is on record? 63.2 nM

====

# Test system: Human immunodeficiency virus 1
# assayOverview: Antiviral activity against NNRTI-resistant HIV-1 RES056 harboring RT K103N/Y181C mutant infected in human MT4 cells assessed as protection against virus-induced cytopathogenicity after 5 days by MTT assay
# Assay type: functional, organism-based
# measurementParameters: Human immunodeficiency virus 1, RES056, MT4, 120 h
Label yes when EC50 < 40 nM; otherwise no.

Cc1cc(/C=C/C#N)cc(C)c1Oc1nc(NC2CCN(Cc3ccc(S(C)(=O)=O)cc3)CC2)ncc1-c1ccc(N)nc1 :: yes
Cc1cc(C#N)cc(C)c1Oc1nc(NC2CCN(Cc3ccc(S(C)(=O)=O)cc3)CC2)ncc1-c1ccccc1 :: no
Cc1cc(C#N)cc(C)c1Oc1nc(NC2CCN(Cc3ccc(S(C)(=O)=O)cc3)CC2)ncc1-c1ccsc1 :: no

Okay, next one:
Identify whether the molecule Cc1cc(C#N)cc(C)c1Oc1nc(NC2CCN(Cc3ccc(C(N)=O)cc3)CC2)ncc1-c1ccncc1 records EC50 below 40 nM. yes
